# protocolDescription: Intrinsic solubility of the compound in water
# studyConditions: buffer
This listing pairs molecules with measured log10 solubility.
Kindly note that the scale is log10 and the underlying solubility is in µg/mL.

[[record]]
molecule = "O=C(O)c1ccccc1C(=O)O"
reading = 3.62


Notebook: CN(C)C(=O)C(CCN1CCC(O)(c2ccc(Cl)cc2)CC1)(c1ccccc1)c1ccccc1 [LOPERAMIDE] , log10 solubility read as -1.40

Just so you know, measured log10 solubility for CNCCC=C1c2ccccc2CCc2ccccc21 came out at 1.40

response.value for CC(C(=O)O)c1cccc(Oc2ccccc2)c1 (centres undefined) (field: log10 solubility) = 1.68

// field: log10 solubility; key: CC(=O)CC(c1ccccc1)c1c(O)c2ccccc2oc1=O (centres undefined) ; value = 0.71

GET /value?item= COc1ccccc1OCCNCC(O)COc1cccc2[nH]c3ccccc3c12 (centres undefined) &field=log10 solubility returns 1.35

Field log10 solubility (entry Cn1cnc([N+](=O)[O-])c1Sc1ncnc2nc[nH]c12 ) reads 2.24
